Reference source: paper PMC12118337

system-name: SHP2 C‐SH2 domain (Homo sapiens, UniProt Q06124)
Construct: SHP2 N-SH2 domain (1–105), C-SH2 domain (106–220), PTP domain (224–541) and; His6 (pETM22 vector) (N, cleaved yes); made in house; host or cells: E. coli BL21(DE3)
Sequence (Q06124 106-220): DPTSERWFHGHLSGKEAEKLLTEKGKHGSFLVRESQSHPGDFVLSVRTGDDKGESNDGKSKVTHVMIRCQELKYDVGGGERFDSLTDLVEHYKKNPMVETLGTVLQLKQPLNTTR
procedure-details: Fluorescence polarization (FP) binding assay, SHP2 C-SH2 domain
setup-conditions: 100 nM FAM-labelled peptide, increasing C-SH2 protein, 50 mM HEPES pH 7.5, 150 mM NaCl, 1 mM EDTA, 0.05% Tween 20, FP at 10 min, three independent experiments in technical triplicates, read-out: K D ± SEM, C‐SH2 (FP)
pKd: −log10 of the molar value. Non-standard residues stand in square brackets, D forms with d. Residues, ends and D or L forms follow the SMILES beside them. *: point of attachment. 5FAM = O=C1OC2(c3ccc(O)cc3Oc3cc(O)ccc32)c2ccc(C(=O)*)cc21; pY = N[C@@H](Cc1ccc(OP(=O)(O)O)cc1)C(=O)O; X1 = O=C(O)C(C(=O)O)*
readout-kind: pKd

INSERT INTO measurements (compound, system_name, readout_kind, relation_sign, result_number) VALUES
  ('CC[C@H](C)[C@H](NC(=O)[C@@H](NC(=O)[C@H](C)NC(=O)[C@H](Cc1ccc(OP(=O)(O)O)cc1)NC(=O)[C@H](CCC(=O)O)NC(=O)[C@@H](NC(=O)[C@H](CCC(N)=O)NC(=O)c1ccc2c(c1)C(=O)OC21c2ccc(O)cc2Oc2cc(O)ccc21)[C@@H](C)O)[C@@H](C)O)C(=O)N[C@@H](CCCCN)C(=O)N[C@@H](Cc1c[nH]cn1)C(=O)N1CCC[C@H]1C(N)=O [peptide 18] (5FAM-QTE[pY]ATIKHP-NH2)', 'SHP2 C‐SH2 domain (Homo sapiens, UniProt Q06124)', 'pKd', '=', 7.05),
  ('CC[C@H](C)[C@H](NC(=O)[C@@H](NC(=O)[C@H](C)NC(=O)[C@H](Cc1ccc(OC(C(=O)O)C(=O)O)cc1)NC(=O)[C@H](CCC(=O)O)NC(=O)[C@@H](NC(=O)[C@H](CCC(N)=O)NC(=O)c1ccc2c(c1)C(=O)OC21c2ccc(O)cc2Oc2cc(O)ccc21)[C@@H](C)O)[C@@H](C)O)C(=O)N[C@@H](CCCCN)C(=O)N[C@@H](Cc1c[nH]cn1)C(=O)N1CCC[C@H]1C(N)=O [peptide 26] (5FAM-QTEY(X1)ATIKHP-NH2)', 'SHP2 C‐SH2 domain (Homo sapiens, UniProt Q06124)', 'pKd', '=', 5.80),
  ('CC[C@H](C)[C@H](NC(=O)[C@@H](NC(=O)[C@H](C)NC(=O)[C@H](Cc1ccc(OP(=O)(O)O)cc1)NC(=O)[C@H](CCC(=O)O)NC(=O)[C@@H](NC(=O)[C@H](C)NC(=O)[C@H](CCC(=O)O)NC(=O)c1ccc2c(c1)C(=O)OC21c2ccc(O)cc2Oc2cc(O)ccc21)[C@@H](C)O)[C@@H](C)O)C(=O)N[C@H](C(=O)N[C@@H](Cc1ccccc1)C(=O)N1CCC[C@H]1C(N)=O)C(C)C [peptide 2] (5FAM-EATE[pY]ATIVFP-NH2)', 'SHP2 C‐SH2 domain (Homo sapiens, UniProt Q06124)', 'pKd', '=', 7.29),
  ('CC[C@H](C)[C@H](NC(=O)[C@@H](NC(=O)[C@H](C)NC(=O)[C@H](Cc1ccc(OP(=O)(O)O)cc1)NC(=O)[C@H](CCC(=O)O)NC(=O)[C@@H](NC(=O)[C@H](CCCCN)NC(=O)c1ccc2c(c1)C(=O)OC21c2ccc(O)cc2Oc2cc(O)ccc21)[C@@H](C)O)[C@@H](C)O)C(=O)N[C@@H](CCCCN)C(=O)N[C@@H](Cc1ccccc1)C(=O)N1CCC[C@H]1C(N)=O [compound 15] (5FAM-KTE[pY]ATIKFP-NH2)', 'SHP2 C‐SH2 domain (Homo sapiens, UniProt Q06124)', 'pKd', '=', 7.21),
  ('CC[C@H](C)[C@H](NC(=O)[C@@H](NC(=O)[C@H](C)NC(=O)[C@H](Cc1ccc(OP(=O)(O)O)cc1)NC(=O)[C@H](CCC(=O)O)NC(=O)[C@@H](NC(=O)[C@H](CCC(N)=O)NC(=O)[C@H](CCC(=O)O)NC(=O)c1ccc2c(c1)C(=O)OC21c2ccc(O)cc2Oc2cc(O)ccc21)[C@@H](C)O)[C@@H](C)O)C(=O)N[C@H](C(=O)N[C@@H](C)C(=O)N1CCC[C@H]1C(N)=O)C(C)C [compound 8] (5FAM-EQTE[pY]ATIVAP-NH2)', 'SHP2 C‐SH2 domain (Homo sapiens, UniProt Q06124)', 'pKd', '=', 6.73),
  ('CC[C@H](C)[C@H](NC(=O)[C@@H](NC(=O)[C@H](C)NC(=O)[C@H](Cc1ccc(OP(=O)(O)O)cc1)NC(=O)[C@H](CCC(=O)O)NC(=O)[C@@H](NC(=O)[C@H](CCC(N)=O)NC(=O)[C@H](CCC(=O)O)NC(=O)c1ccc2c(c1)C(=O)OC21c2ccc(O)cc2Oc2cc(O)ccc21)[C@@H](C)O)[C@@H](C)O)C(=O)N[C@@H](C)C(=O)N[C@@H](Cc1ccccc1)C(=O)N1CCC[C@H]1C(N)=O [compound 7] (5FAM-EQTE[pY]ATIAFP-NH2)', 'SHP2 C‐SH2 domain (Homo sapiens, UniProt Q06124)', 'pKd', '<', 5.70),
  ('CC[C@H](C)[C@H](NC(=O)[C@@H](NC(=O)[C@H](C)NC(=O)[C@H](Cc1ccc(OC(C(=O)O)C(=O)O)cc1)NC(=O)[C@H](CCC(=O)O)NC(=O)[C@@H](NC(=O)[C@H](CCC(N)=O)NC(=O)[C@H](CCC(=O)O)NC(=O)c1ccc2c(c1)C(=O)OC21c2ccc(O)cc2Oc2cc(O)ccc21)[C@@H](C)O)[C@@H](C)O)C(=O)N[C@H](C(=O)N[C@@H](Cc1ccccc1)C(=O)N1CCC[C@H]1C(N)=O)C(C)C [FAM‐ITSM(L‐OMT)] (5FAM-EQTEY(X1)ATIVFP-NH2)', 'SHP2 C‐SH2 domain (Homo sapiens, UniProt Q06124)', 'pKd', '=', 6.59),
  ('CC[C@H](C)[C@H](NC(=O)[C@@H](NC(=O)[C@H](C)NC(=O)[C@H](Cc1ccc(OP(=O)(O)O)cc1)NC(=O)[C@H](CCC(=O)O)NC(=O)[C@@H](NC(=O)[C@H](CCC(N)=O)NC(=O)[C@H](C)NC(=O)c1ccc2c(c1)C(=O)OC21c2ccc(O)cc2Oc2cc(O)ccc21)[C@@H](C)O)[C@@H](C)O)C(=O)N[C@H](C(=O)N[C@@H](Cc1ccccc1)C(=O)N1CCC[C@H]1C(N)=O)C(C)C [peptide 1] (5FAM-AQTE[pY]ATIVFP-NH2)', 'SHP2 C‐SH2 domain (Homo sapiens, UniProt Q06124)', 'pKd', '=', 7.21),
  ('CC[C@H](C)[C@H](NC(=O)[C@@H](NC(=O)[C@H](C)NC(=O)[C@H](Cc1ccc(OP(=O)(O)O)cc1)NC(=O)[C@H](CCC(=O)O)NC(=O)[C@H](C)NC(=O)[C@H](CCC(N)=O)NC(=O)[C@H](CCC(=O)O)NC(=O)c1ccc2c(c1)C(=O)OC21c2ccc(O)cc2Oc2cc(O)ccc21)[C@@H](C)O)C(=O)N[C@H](C(=O)N[C@@H](Cc1ccccc1)C(=O)N1CCC[C@H]1C(N)=O)C(C)C [peptide 3] (5FAM-EQAE[pY]ATIVFP-NH2)', 'SHP2 C‐SH2 domain (Homo sapiens, UniProt Q06124)', 'pKd', '=', 6.87);

====

Recorded pKd values for a group of compounds are listed next.
system-name: SHP2 N‐SH2 domain (Homo sapiens)
Construct: SHP2 N-SH2 domain (1–105), C-SH2 domain (106–220), PTP domain (224–541) and; His6 (pETM22 vector) (N, cleaved yes); made in house; host or cells: E. coli BL21(DE3)
Sequence (Q06124 1-105): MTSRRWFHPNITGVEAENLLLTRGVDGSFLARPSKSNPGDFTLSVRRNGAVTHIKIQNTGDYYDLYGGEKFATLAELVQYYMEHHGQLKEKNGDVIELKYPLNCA
procedure-details: Fluorescence polarization (FP) binding assay, SHP2 N-SH2 domain
setup-conditions: 100 nM FAM-labelled peptide, increasing N-SH2 protein, 50 mM HEPES pH 7.5, 150 mM NaCl, 1 mM EDTA, 0.05% Tween 20, FP at 10 min, three independent experiments in technical triplicates, read-out: K D ± SEM, N‐SH2 (FP)
pKd: −log10 of the molar value. Non-standard residues stand in square brackets, D forms with d. Residues, ends and D or L forms follow the SMILES beside them. *: point of attachment. 5FAM = O=C1OC2(c3ccc(O)cc3Oc3cc(O)ccc32)c2ccc(C(=O)*)cc21; Pmp = N[C@@H](Cc1ccc(CP(=O)(O)O)cc1)C(=O)O; pY = N[C@@H](Cc1ccc(OP(=O)(O)O)cc1)C(=O)O
readout-kind: pKd

INSERT INTO results (compound, result) VALUES
  ('CC[C@H](C)[C@H](NC(=O)[C@@H](NC(=O)[C@H](C)NC(=O)[C@H](Cc1ccc(CP(=O)(O)O)cc1)NC(=O)[C@H](CCC(=O)O)NC(=O)[C@@H](NC(=O)[C@H](CCC(N)=O)NC(=O)[C@H](CCC(=O)O)NC(=O)c1ccc2c(c1)C(=O)OC21c2ccc(O)cc2Oc2cc(O)ccc21)[C@@H](C)O)[C@@H](C)O)C(=O)N[C@H](C(=O)N[C@@H](Cc1ccccc1)C(=O)N1CCC[C@H]1C(N)=O)C(C)C [FAM‐ITSM(Pmp)] (5FAM-EQTE[Pmp]ATIVFP-NH2)', '< 5.00'),
  ('CC(C)[C@H](NC(=O)[C@@H](NC(=O)[C@H](C)NC(=O)[C@H](Cc1ccc(OP(=O)(O)O)cc1)NC(=O)[C@H](CCC(=O)O)NC(=O)[C@@H](NC(=O)[C@H](CCC(N)=O)NC(=O)[C@H](CCC(=O)O)NC(=O)c1ccc2c(c1)C(=O)OC21c2ccc(O)cc2Oc2cc(O)ccc21)[C@@H](C)O)[C@@H](C)O)C(=O)N[C@@H](CCCCN)C(=O)N[C@@H](Cc1ccccc1)C(=O)N1CCC[C@H]1C(N)=O [compound 10] (5FAM-EQTE[pY]ATVKFP-NH2)', '< 5.52');
